system: HOP-62 NSCLC; test: NCI tumour cell line growth inhibition, 48 h
reported.metric: GI50

**Query** Please give the measured GI50 for this compound: CCOC(=O)/C=C/c1cc2cc(-c3csc4ccccc34)ccc2[nH]1
**Result** 5.71 µM

**Query** Please give the measured GI50 for this compound: Cc1noc(C)c1-c1cc(O)cc(C(O)c2ccccc2)c1 (stereo unspecified)
**Result** 4.89 µM

**Query** Please give the measured GI50 for this compound: C/C(=C\C1=C(Cl)C(=O)c2ccccc2C1=O)C(=O)O
**Result** 18.8 µM

**Query** Please give the measured GI50 for this compound: COc1ccc(C2=NN(C(=O)c3cc(OC)c(OC)c(OC)c3)C(c3ccc(Cl)cc3)C2)cc1OC (stereo unspecified)
**Result** 5.24 µM

**Query** Please give the measured GI50 for this compound: Oc1c(CN2CCCC2)cc(COCc2ccc(Br)cc2)c2cccnc12
**Result** 0.362 µM

**Query** Please give the measured GI50 for this compound: O=C(CCCN1CCOCC1)Nc1ccc(Cn2nnc3c2C(=O)c2nnn(Cc4ccc(NC(=O)CCCN5CCOCC5)cc4)c2C3=O)cc1
**Result** > 100 µM

**Query** Please give the measured GI50 for this compound: N#Cc1ccc(N2Cc3ccccc3OC3=C2C(=O)c2c(O)ccc(O)c2C3=O)cc1
**Result** 1.29 µM

**Query** Please give the measured GI50 for this compound: O=c1cc(N2CCNCC2)oc2c(-c3ccccc3)cccc12
**Result** 65.4 µM

**Query** Please give the measured GI50 for this compound: CNC(=O)c1ccc2cc(C3(O)CCn4cncc43)ccc2c1 (stereo unspecified)
**Result** > 100 µM

**Query** Please give the measured GI50 for this compound: COC(=O)[C@]12CC[C@@H](C)[C@H](C)[C@@H]1C1=CC[C@@H]3[C@@]4(C)C(C=O)=C[C@@](C)(COC(=O)c5ccco5)[C@@H]4C(=O)C[C@@]3(C)[C@]1(C)CC2
**Result** 18.9 µM

**Query** Please give the measured GI50 for this compound: COc1cc2nccc(Oc3ccc(NC(=O)C4(C(=O)Nc5ccc(F)cc5)CC4)cc3)c2cc1Oc1ccc(N)cn1
**Result** 2.83 µM

====

tested on: U251 CNS; test: NCI tumour cell line growth inhibition, 48 h
reported.metric: TGI

**Query** Please give the measured TGI for this compound: O=C(Nc1ccc(CN2CCOCC2)cc1)c1[nH]ncc1Nc1ncnc2sccc12
**Result** 13.2 µM

**Query** Please give the measured TGI for this compound: c1ccc(C2SCc3nc4cc5ccccc5cc4n32)cc1 (stereo unspecified)
**Result** > 100 µM

**Query** Please give the measured TGI for this compound: O=C1N(c2ccccc2)C(=O)C2(SC=NN2Cc2ccccc2)N1c1ccccc1 (stereo unspecified)
**Result** > 100 µM

**Query** Please give the measured TGI for this compound: C=C1CCCCCCCCCCC12SCCC2CCCCSC (stereo unspecified)
**Result** 33.8 µM

**Query** Please give the measured TGI for this compound: O=C1CCCC/C1=C1\C(=O)Nc2cc(F)ccc21
**Result** > 100 µM

**Query** Please give the measured TGI for this compound: O=C(CF)N(O)c1ccc(/C=C/c2ccccc2)cc1
**Result** > 60 µM

**Query** Please give the measured TGI for this compound: C/C(=N\Oc1cc(Cl)ncn1)c1ccccn1
**Result** > 100 µM

**Query** Please give the measured TGI for this compound: CCN1C(=O)NC(=O)C(C)(N2C(=O)c3c(F)c(F)c(F)c(F)c3C2=O)C1=O (stereo unspecified)
**Result** 4.04 µM

**Query** Please give the measured TGI for this compound: CC(=O)C1=C(C)Cn2c(=O)c3ccccc3c(=O)n2C1
**Result** > 100 µM

**Query** Please give the measured TGI for this compound: COc1cc2nccc(Oc3ccc(NC(=O)C4(C(=O)Nc5ccc(F)cc5)CC4)cc3)c2cc1Oc1ccc(N)cn1
**Result** 16.6 µM

**Query** Please give the measured TGI for this compound: CCOC(=O)c1cc2c(nc1N)-c1ncccc1CC2
**Result** > 100 µM

====

test system: MDA-MB-435; assay: NCI tumour cell line growth inhibition, 48 h
reported.metric: TGI

**Query** Record lookup: for MDA-MB-435, what TGI belongs to O=C1c2ccccc2C(=Cc2ccccc2)c2ccccc21 ?
**Result** 11.9 µM

**Query** Record lookup: for MDA-MB-435, what TGI belongs to CCC1(CCSC(=N)N)C(=O)NC(=O)NC1=O ?
**Result** > 100 µM

**Query** Record lookup: for MDA-MB-435, what TGI belongs to O=P(NC12CC3CC(CC(C3)C1)C2)(N1CC1)N1CC1 ?
**Result** > 100 µM

**Query** Record lookup: for MDA-MB-435, what TGI belongs to CN(Cc1cnc2nc(N)nc(N)c2n1)c1ccc(C(=O)NCS(=O)(=O)O)cc1 ?
**Result** > 100 µM

**Query** Record lookup: for MDA-MB-435, what TGI belongs to COc1cc(=O)n2c3ccccc3n(C)c2c1C#N ?
**Result** > 100 µM

**Query** Record lookup: for MDA-MB-435, what TGI belongs to CCOC(=O)C(C)(C(=O)OCC)/C(Cl)=C\Cl ?
**Result** > 100 µM

**Query** Record lookup: for MDA-MB-435, what TGI belongs to CCCCOC(=O)NC(Nc1ccc(S(=O)(=O)Nc2ccc(OC)nn2)cc1)(C(F)(F)F)C(F)(F)F ?
**Result** > 100 µM

**Query** Record lookup: for MDA-MB-435, what TGI belongs to O=C(Nc1ccc(Oc2ccc3nc(NC(=O)c4ccccc4)[nH]c3c2)cc1)Nc1cc(C(F)(F)F)ccc1F ?
**Result** 2.94 µM

**Query** Record lookup: for MDA-MB-435, what TGI belongs to Cc1ccc(S(=O)(=O)/N=C(\N)N(C)N=O)cc1 ?
**Result** > 100 µM

**Query** Record lookup: for MDA-MB-435, what TGI belongs to N#Cc1c(NCCc2ccc(F)cc2)c2ccccc2n2c1nc1ccccc12 ?
**Result** > 100 µM

**Query** Record lookup: for MDA-MB-435, what TGI belongs to Cc1cccc(C(=O)/C=C/SC(=NC#N)SCc2ccccc2)c1 ?
**Result** 72.1 µM

**Query** Record lookup: for MDA-MB-435, what TGI belongs to N#Cc1nc(COCc2ccccc2)oc1N ?
**Result** > 100 µM

**Query** Record lookup: for MDA-MB-435, what TGI belongs to CCN1C(=O)NC(=O)C(C)(N2C(=O)c3c(F)c(F)c(F)c(F)c3C2=O)C1=O (stereo unspecified) ?
**Result** 10.6 µM

**Query** Record lookup: for MDA-MB-435, what TGI belongs to O=C(NNc1ccnc2cc(Cl)ccc12)/C(=C\c1ccccc1Cl)NC(=O)c1ccccc1 ?
**Result** > 100 µM

**Query** Record lookup: for MDA-MB-435, what TGI belongs to CCCC[N+](CCCC)=c1ccc2nc3c(C)cc(N(CC)CC)cc3sc-2c1 ?
**Result** 1.2 µM

**Query** Record lookup: for MDA-MB-435, what TGI belongs to O=C(O)CCC(=O)c1ccc2ccc3cccc4ccc1c2c34 ?
**Result** > 100 µM

====

test system: NCI-H522 lung; assay: NCI tumour cell line growth inhibition, 48 h
TGI vs 20 µM: at or above is true (1), below is false (0).

**Query** Has CCN(CC)CCCNc1nc(=O)[nH]c(C)c1C(=O)Nc1c2ccccc2nc2ccccc12 a recorded TGI greater than or equal to 20 µM?
**Result** true (1)

**Query** Has Oc1c(CN2CCCC2)cc(COCc2ccc(Br)cc2)c2cccnc12 a recorded TGI greater than or equal to 20 µM?
**Result** false (0)

**Query** Has CC1(C)CC(=O)C2=C(C1)S/C(=C1/SC3=C(S1)C(=O)CC(C)(C)C3)S2 a recorded TGI greater than or equal to 20 µM?
**Result** true (1)

**Query** Has O=C1c2ccccc2C(=Cc2ccccc2)c2ccccc21 a recorded TGI greater than or equal to 20 µM?
**Result** false (0)

**Query** Has CCSC1(SCC)CC(Cc2ccc(OC)cc2)N(C=NC(C)(C)C)C1 (stereo not given) a recorded TGI greater than or equal to 20 µM?
**Result** true (1)

**Query** Has COc1cc(/C=C/C(=O)OCCc2ccccc2)ccc1O a recorded TGI greater than or equal to 20 µM?
**Result** true (1)

**Query** Has COc1ccc2c(c1)c1c(n2CCN(C)C)-c2cccc(OC)c2CC1 a recorded TGI greater than or equal to 20 µM?
**Result** false (0)

**Query** Has CSCCC(N)P(C)(=O)O (stereo not given) a recorded TGI greater than or equal to 20 µM?
**Result** true (1)

**Query** Has COc1cccc2c1-c1c(c3ccc([N+](=O)[O-])cc3c(=O)n1CCCCl)C2=O a recorded TGI greater than or equal to 20 µM?
**Result** true (1)

**Query** Has COC(=O)[C@]12CC[C@@H](C)[C@H](C)[C@@H]1C1=CC[C@@H]3[C@@]4(C)C(C=O)=C[C@@](C)(COC(=O)c5ccco5)[C@@H]4C(=O)C[C@@]3(C)[C@]1(C)CC2 a recorded TGI greater than or equal to 20 µM?
**Result** true (1)

All values here come from PubChem BioAssay (NCI).
